The measured values listed here are drawn from paper PMC9794608.

- assay details: Plasma pharmacokinetics after single and repeat oral dose, LC-MS/MS, non-compartmental analysis
- Format: in vivo, Beagle dogs
- assay context: both sexes, beagle, dog, plasma, po, 0.1 mg/kg, First dose (Day 1); sapanisertib 0.1 mg/kg p.o.; median (range), n = 4; read-out: TMAX (sapanisertib in plasma)
value kind: Tmax (h)
Expressed in h, but write only the number.

Tmax reported for this compound CC(C)n1nc(-c2ccc3oc(N)nc3c2)c2c(N)ncnc21 : 2

---

- assay details: Plasma pharmacokinetics after single and repeat oral dose, LC-MS/MS, non-compartmental analysis
- Assay type: in vivo, Beagle dogs
- assay context: both sexes, beagle, dog, plasma, po, 0.1 mg/kg, First dose (Day 1); sapanisertib 0.1 mg/kg p.o.; mean (%CV), n = 4; read-out: T1/2 (sapanisertib in plasma) (converted)
value kind: half-life (h)
Expressed in h, but write only the number.

half-life reported for this compound CC(C)n1nc(-c2ccc3oc(N)nc3c2)c2c(N)ncnc21 : 5.94

---

- assay details: Plasma pharmacokinetics after single and repeat oral dose, LC-MS/MS, non-compartmental analysis
- Type: in vivo, Beagle dogs
- assay context: both sexes, beagle, dog, plasma, po; First dose (Day 1); sapanisertib 0.1 mg/kg p.o.; mean (%CV), n = 4
- Protocol: Laboratory Beagle dogs (Charles River Labs, Mattawan, MI) served as surrogates in testing compounds proposed for application in canine clinical cancer care. The animals were at least six months old and weighed 6.4–8.8 kg at the initiation of study. They had routine veterinary care and had not been used in any previous studies. […] Animals on study were monitored daily or more frequently and body weights were recorded, while periodic specimens were obtained for laboratory analyses. […]
value kind: CL/F

CL/F reported for this compound CC(C)n1nc(-c2ccc3oc(N)nc3c2)c2c(N)ncnc21 [Sapanisertib] : 7.83 mL/min/kg

---

- assay details: Plasma pharmacokinetics after single and repeat oral dose, LC-MS/MS, non-compartmental analysis
- Format: in vivo, Beagle dogs
- assay context: both, beagle, dog, plasma, po, 0.1 mg/kg, First dose (Day 1); sapanisertib 0.1 mg/kg p.o., alone or with trametinib […] (see label); arithmetic mean (%CV), n = 4; read-out: CMAX (sapanisertib in plasma)
value kind: Cmax (ng/mL)
Expressed in ng/mL, but write only the number.

Cmax reported for this compound CC(C)n1nc(-c2ccc3oc(N)nc3c2)c2c(N)ncnc21 : 26.3

---

- assay details: Plasma pharmacokinetics after single and repeat oral dose, LC-MS/MS, non-compartmental analysis
- Assay type: in vivo, Beagle dogs
- assay context: both sexes, beagle, dog, plasma, po, 0.1 mg/kg, dogs, 0.1 mg/kg p.o.; read-out: Sapanisertib Tmax on average
value kind: Tmax (h)
Expressed in h, but write only the number.

Tmax reported for this compound CC(C)n1nc(-c2ccc3oc(N)nc3c2)c2c(N)ncnc21 : 2

---

- assay details: Plasma pharmacokinetics after single and repeat oral dose, LC-MS/MS, non-compartmental analysis
- Assay type: in vivo, Beagle dogs
- assay context: both, beagle, dog, plasma, po, […], TMAX (trametinib in plasma), Steady-state (Day 20); trametinib […] p.o. q.d.; median (range), n = 4
value kind: Tmax (h)
Expressed in h, but write only the number.

Tmax reported for this compound CC(=O)Nc1cccc(-n2c(=O)n(C3CC3)c(=O)c3c(Nc4ccc(I)cc4F)n(C)c(=O)c(C)c32)c1 [Trametinib, trametinib dimethyl sulfoxide] : 2

---

- assay details: Plasma pharmacokinetics after single and repeat oral dose, LC-MS/MS, non-compartmental analysis
- Format: in vivo, Beagle dogs
- assay context: both, beagle, dog, plasma, po, […], CMAX (trametinib in plasma), First dose (Day 1); trametinib […] p.o., alone or with sapanisertib 0.1 mg/kg (see label); arithmetic mean (%CV), n = 4
value kind: Cmax (ng/mL)
Expressed in ng/mL, but write only the number.

Cmax reported for this compound CC(=O)Nc1cccc(-n2c(=O)n(C3CC3)c(=O)c3c(Nc4ccc(I)cc4F)n(C)c(=O)c(C)c32)c1 [Trametinib, trametinib dimethyl sulfoxide] : 0.64
